We begin with a simple list: items and their reported TGI.
System: SK-MEL-28 melanoma
Assay: NCI tumour cell line growth inhibition, 48 h
Quantity name: TGI

[[record]]
molecule = "O=C(NC1CCCCC1)NS(=O)(=O)c1ccc(N2N=C3c4ccccc4CC3C2c2ccc(Cl)cc2)cc1 (centres undefined)"
measured_value = "> 100 µM"

[[record]]
molecule = "CC1=C/C(=N\\NC(N)=S)C(C(O)(C(F)(F)F)C(F)(F)F)C(C)(C)C1 (centres undefined)"
measured_value = "> 10 µM"

[[record]]
molecule = "Cc1ccc(-[n+]2cc([O-])on2)cc1"
measured_value = "> 100 µM"

[[record]]
molecule = "CC[C@@H](c1ccc(O)c(O)c1)[C@@H](CC)c1ccc(O)c(O)c1"
measured_value = "44.6 µM"

[[record]]
molecule = "Fc1cc(-c2nnc3n2N=C(c2ccc(Cl)cc2)CS3)c(Cl)cc1Cl"
measured_value = "34.8 µM"

[[record]]
molecule = "O=C1OCC2=C1C(c1cccc(Br)c1)c1cc3c(cc1N2CCO)OCCO3 (centres undefined)"
measured_value = "> 50 µM"

[[record]]
molecule = "COC1=CC(=O)C(C2(OC(C)C)OC(=O)C(Cl)=C2Cl)=CC1=O (centres undefined)"
measured_value = "> 100 µM"

[[record]]
molecule = "O=C(O)CSc1n[nH]c(-c2ccccc2O)n1"
measured_value = "> 100 µM"

[[record]]
molecule = "CN(C)c1ccc(/C=N/NC(=S)Nc2ccccc2)cc1"
measured_value = "> 100 µM"


* * *

System: NCI-H23 lung
Assay: NCI tumour cell line growth inhibition, 48 h
Quantity name: TGI

[[record]]
molecule = "CCOC(=O)c1csc(NC(=O)CN2CCCC2)n1"
target_entity = "NCI-H23 lung"
quantity_name = "TGI"
measured_value = "> 100 µM"

[[record]]
molecule = "COc1ccc2ncnc(Nc3ccc(OCc4ccccc4)cc3)c2c1"
target_entity = "NCI-H23 lung"
quantity_name = "TGI"
measured_value = "> 25 µM"

[[record]]
molecule = "COc1cc(-c2nc3sccn3c2-c2ccnc(NCCNS(=O)(=O)c3ccc(F)cc3)n2)ccc1F"
target_entity = "NCI-H23 lung"
quantity_name = "TGI"
measured_value = "> 100 µM"

[[record]]
molecule = "COc1ccc(C(C)NNC(=O)c2ccncc2)cc1OC (centres undefined)"
target_entity = "NCI-H23 lung"
quantity_name = "TGI"
measured_value = "> 100 µM"


* * *

System: NCI-H460 lung
Assay: NCI tumour cell line growth inhibition, 48 h
Quantity name: TGI (µM)

[[record]]
compound = "COC(=O)CC(C)(NS(=O)c1ccc(C)cc1)c1ccccc1 (stereo not given)"
target_entity = "NCI-H460 lung"
limit_sign = ">"
measured_value = 100

[[record]]
compound = "CN1C(=O)C(=O)N2c3ccc(Cl)cc3C3(c4ccccc4)N=CC12O3 (stereo not given)"
target_entity = "NCI-H460 lung"
limit_sign = "="
measured_value = 25.8

[[record]]
compound = "O=[N+]([O-])c1ccc2nc(Nc3ccccc3)c(Nc3ccccc3)nc2c1"
target_entity = "NCI-H460 lung"
limit_sign = "="
measured_value = 1.61

[[record]]
compound = "COc1cc(-c2nc3sccn3c2-c2ccnc(NCCNS(=O)(=O)c3ccc(F)cc3)n2)ccc1F"
target_entity = "NCI-H460 lung"
limit_sign = ">"
measured_value = 100

[[record]]
compound = "NC(=S)N/N=C\\c1nccc2c(C(F)(F)F)cccc12"
target_entity = "NCI-H460 lung"
limit_sign = "="
measured_value = 8.59


* * *

Tested on: OVCAR-5 ovarian
Assay: NCI tumour cell line growth inhibition, 48 h
Quantity name: TGI

[[record]]
compound = "CC[C@@H](c1ccc(O)c(O)c1)[C@@H](CC)c1ccc(O)c(O)c1"
measured_value = "37.8 µM"

[[record]]
compound = "CCOC(=O)C(=[N+]=[N-])C(=O)CN1C(=O)c2ccccc2C1=O"
measured_value = "> 100 µM"

[[record]]
compound = "COc1cc(C2C(Cl)C(=O)N2n2cnc3ccccc3c2=O)ccc1O (centres undefined)"
measured_value = "> 100 µM"

[[record]]
compound = "CCCCCCc1cc2cc(-c3cn4ccsc4n3)c(=O)oc2cc1O"
measured_value = "> 100 µM"


* * *

Test system: SW-620 colon
Assay: NCI tumour cell line growth inhibition, 48 h
*1 amine or outer side, *2 acyl side, *3 side chain or, on linkers, in order; H or OH if unused. Where a SMILES comes first, the peptide text is derived from it. Bridges are numbered along the chain shown (N, C = ends). Roman numbers before positions name the chains, in order. [ ]: non-standard residue; d: D form. Actinocin(9to1) = Cc1c2oc3c(C)ccc(C(=O)[*:1])c3nc-2c(C(=O)[*:2])c(N)c1=O; NMeV = CN[CH](C(=O)O)C(C)C; Sar = CNCC(=O)O
Quantity name: TGI

[[record]]
molecule = "Cc1nn(C(=O)Cc2ccccc2)c2c1C(c1ccccc1)SC(N)=N2 (stereo not drawn)"
quantity_name = "TGI"
measured_value = "> 100 µM"

[[record]]
molecule = "O=c1c2cccnc2ncn1CCN1CCCCC1"
quantity_name = "TGI"
measured_value = "> 100 µM"

[[record]]
molecule = "C/C=C/[C@@H]1O[C@@H]2COC(=O)C2=C[C@@H]1O"
quantity_name = "TGI"
measured_value = "5.07 µM"

[[record]]
molecule = "c1ccc(Nc2ncc(-c3ccccc3)o2)cc1"
quantity_name = "TGI"
measured_value = "> 25 µM"

[[record]]
molecule = "Cc1ccc(S(=O)(=O)N2C3C=CC(C3)[C@@H]2C(Cl)(Cl)Cl)cc1 (stereo partly drawn)"
quantity_name = "TGI"
measured_value = "44.9 µM"

[[record]]
molecule = "NC(Cc1ccccc1)C(=O)NC(Cc1ccccc1)NC(=O)C(Cc1c[nH]c2ccccc12)C(=O)O (stereo not drawn)"
quantity_name = "TGI"
measured_value = "> 100 µM"

[[record]]
molecule = "COc1ccc(C2Oc3cc(OC)c(OC)cc3C2CCl)cc1OC (stereo not drawn)"
quantity_name = "TGI"
measured_value = "> 100 µM"

[[record]]
molecule = "Cc1c2oc3c(C)ccc(C(=O)NC4C(=O)NC(C(C)C)C(=O)N5CCCC5C(=O)N(C)CC(=O)N(C)C(C(C)C)C(=O)OC4C)c3nc-2c(C(=O)NC2C(=O)NC(C(C)C)C(=O)N3CCCC3C(=O)N(C)CC(=O)N(C)C(C(C)C)C(=O)OC2C)c(N)c1=O (stereo not drawn) (I: TVP[Sar][NMeV] / II: TVP[Sar][NMeV]; ester I:1-I:C, II:1-II:C; linker I:N-II:N via Actinocin(9to1); configuration not given here)"
quantity_name = "TGI"
measured_value = "0.105 µM"


* * *

Test system: EKVX NSCLC
Assay: NCI tumour cell line growth inhibition, 48 h
Quantity name: TGI

[[record]]
compound = "Cc1nnc2ccnn2c1C"
target_entity = "EKVX NSCLC"
quantity_name = "TGI"
measured_value = "0.962 µM"

[[record]]
compound = "O=C(O)Cc1ccc([N+](=O)[O-])cc1[N+](=O)[O-]"
target_entity = "EKVX NSCLC"
quantity_name = "TGI"
measured_value = "> 100 µM"

[[record]]
compound = "O=C(NC1C=CCC2C(=O)N(c3ccccc3)C(=O)C12)OCc1ccccc1 (stereo not drawn)"
target_entity = "EKVX NSCLC"
quantity_name = "TGI"
measured_value = "> 100 µM"

[[record]]
compound = "CCCCCCCCCCSC(=N)N (tested in a mixture with another compound)"
target_entity = "EKVX NSCLC"
quantity_name = "TGI"
measured_value = "23.7 µM"

[[record]]
compound = "COc1ccc(/C=C/COC(C)=O)cc1OC"
target_entity = "EKVX NSCLC"
quantity_name = "TGI"
measured_value = "> 100 µM"

[[record]]
compound = "COc1cccc(-c2cc(=O)c3cc(N4CCCCC4)ccc3[nH]2)c1"
target_entity = "EKVX NSCLC"
quantity_name = "TGI"
measured_value = "> 100 µM"

[[record]]
compound = "O=c1[nH]c(=O)c2c3n(cc2[nH]1)CCCCC3"
target_entity = "EKVX NSCLC"
quantity_name = "TGI"
measured_value = "> 100 µM"

[[record]]
compound = "CN(C)CC1CCCC/C1=N/O (stereo not drawn)"
target_entity = "EKVX NSCLC"
quantity_name = "TGI"
measured_value = "> 100 µM"

[[record]]
compound = "O=C(Nc1nn2c(-c3cc(C(F)(F)F)cc(C(F)(F)F)c3)nnc2s1)C1CCCC1"
target_entity = "EKVX NSCLC"
quantity_name = "TGI"
measured_value = "> 25.2 µM"

[[record]]
compound = "O=C1/C(=C/c2ccco2)NC(=S)N1CN1CCCCC1"
target_entity = "EKVX NSCLC"
quantity_name = "TGI"
measured_value = "> 100 µM"

[[record]]
compound = "Oc1ccc(NCn2c(=S)sc3ccccc32)cc1"
target_entity = "EKVX NSCLC"
quantity_name = "TGI"
measured_value = "> 100 µM"

[[record]]
compound = "COCOC1/C=C/CCCCC(=O)C(C)C#CC1 (stereo not drawn)"
target_entity = "EKVX NSCLC"
quantity_name = "TGI"
measured_value = "23.1 µM"

[[record]]
compound = "N#CSC#CCCC#CSC#N"
target_entity = "EKVX NSCLC"
quantity_name = "TGI"
measured_value = "41.5 µM"

[[record]]
compound = "COc1cc2c(cc1OC)C(Cl)C(c1ccc(F)cc1)=C2Cl (stereo not drawn)"
target_entity = "EKVX NSCLC"
quantity_name = "TGI"
measured_value = "40.7 µM"

[[record]]
compound = "C#Cc1cccc(Nc2nc3cc([N+](=O)[O-])ccc3nc2Nc2ccc(O)cc2)c1"
target_entity = "EKVX NSCLC"
quantity_name = "TGI"
measured_value = "5.26 µM"

[[record]]
compound = "O=C1OC(c2ccccc2)=N/C1=C\\c1ccc([N+](=O)[O-])cc1"
target_entity = "EKVX NSCLC"
quantity_name = "TGI"
measured_value = "> 100 µM"

[[record]]
compound = "CCN(CC)CCCNC(=O)c1cc(-c2nccn2C)nc2ccccc12"
target_entity = "EKVX NSCLC"
quantity_name = "TGI"
measured_value = "> 100 µM"

[[record]]
compound = "O=C1c2ccccc2C(=O)c2c(/C=C\\N3CCCCC3)ccnc21"
target_entity = "EKVX NSCLC"
quantity_name = "TGI"
measured_value = "31.2 µM"

